Just for reference, a melting point compilation (Tetko et al.; mined from patent text by program, amines drawn as free bases though some values may be those of a salt) is where these values come from.

Parameter melting point: see the listing below.

Query: What does the record list as melting point for `COc1cc(/C=C/C(=O)/C=C/c2cc(OC)c(OCCN=[N+]=[N-])c(OC)c2)cc(OC)c1OCCN=[N+]=[N-]` ?
Response: 107 to 109 °C

Query: What does the record list as melting point for `Cc1cc(SCN(O)CSc2cc(C)c(O)c(C(C)(C)C)c2)cc(C(C)(C)C)c1O` ?
Response: 115 to 118 °C

Query: What does the record list as melting point for `CCCc1nc(S)nc(O)c1Cc1ccc(-c2ccccc2C#N)cc1` ?
Response: 191 °C

Query: What does the record list as melting point for `CC1(C)Nc2cc(F)c(F)cc2-n2cccc21` ?
Response: 123 to 125 °C

Query: What does the record list as melting point for `Cc1[nH]c(=O)c2c(ccc3nc(Nc4c(Cl)cccc4Cl)n(C)c32)c1CCN1CCOCC1` ?
Response: 285 to 290 °C

Query: What does the record list as melting point for `CCOC(=O)Cn1c(=S)c2ccccc2n(Cc2ccc(Br)cc2F)c1=O` ?
Response: 109 to 110 °C

Query: What does the record list as melting point for `COc1ccc(C(=O)Nc2ccc(F)cc2F)cc1N` ?
Response: 166 to 168 °C

Query: What does the record list as melting point for Cc1ccc(C(=O)NC(NC(=NC#N)Nc2ccc(Cl)nc2)C(C)(C)C)cc1 (stereo not given) ?
Response: 194 to 196 °C
